EXPERIMENTAL TARGET: MAO-A
PROTOCOL DETAILS: Kinetic mechanism of MAO-A inhibition in vitro (substrate serotonin or tyramine varied)
Format: biochemical, rat or human
CONDITION SET: vs. substrate serotonin
RESULT TYPE: pKi
Units for pKi: none; it is -log10 of a concentration expressed in mol/L.

Find the recorded pKi belonging to CCc1cccc2c1S(=O)(=O)c1ccccc1O2 [Compound I, 1-Ethylphenoxathiin 10,10-dioxide] and report it.
8.00
